# testedTarget: Protein cereblon (Homo sapiens, UniProt Q96SW2)
# Sequence (Q96SW2 whole entry): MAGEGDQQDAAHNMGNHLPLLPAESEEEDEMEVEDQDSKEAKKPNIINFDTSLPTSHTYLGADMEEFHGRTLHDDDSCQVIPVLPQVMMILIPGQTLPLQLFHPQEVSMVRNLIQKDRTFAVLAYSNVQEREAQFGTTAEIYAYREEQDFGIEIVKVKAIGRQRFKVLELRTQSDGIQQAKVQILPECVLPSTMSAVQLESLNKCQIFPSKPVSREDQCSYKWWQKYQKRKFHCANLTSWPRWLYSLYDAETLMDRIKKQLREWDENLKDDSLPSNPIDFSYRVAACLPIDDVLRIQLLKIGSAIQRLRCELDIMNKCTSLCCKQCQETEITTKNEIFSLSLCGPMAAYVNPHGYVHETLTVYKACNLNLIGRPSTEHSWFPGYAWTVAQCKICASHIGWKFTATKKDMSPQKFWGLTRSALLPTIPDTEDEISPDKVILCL
# experimentDescription: Cereblon (CRBN) Target Engagement
Answer each item with its documented EC50.

Worked examples follow.
molecule	testedTarget	EC50
O=C1NC(=O)C2(N3Cc4cc(O[C@H]5CCC[C@@H]5N5CCC(c6ccccc6)C5)ccc4C3=O)CC1C2 (stereo partly drawn) [US20240246935, Example 107]	Protein cereblon (Homo sapiens, UniProt Q96SW2)	> 10 µM
O=C1NC(=O)C2(N3Cc4cc(O[C@H]5CCC[C@@H]5N5CC(c6ccc(F)cc6Cl)C5)ccc4C3=O)CC1C2 [US20240246935, Example 86]	Protein cereblon (Homo sapiens, UniProt Q96SW2)	> 10 µM

Note: attention shifts to another entry.
I have this molecule here, O=C1NC(=O)C2(N3Cc4cc(O[C@H]5CCC[C@@H]5N5CC(c6cccc(F)c6)C5)ccc4C3=O)CC1C2 [US20240246935, Example 87] , and I need its recorded EC50.
> 10 µM

The measurements presented in this section are drawn from BindingDB's records for patent US20240246935.
